Known IC50 of a selection of molecules
biological target: human sodium-dependent glucose transporter 2 (SGLT2, SLC5A2) (Homo sapiens, UniProt P31639); construct: Bases 21 to 2039 correspond to the complete coding region of human SGLT2; assay: Inhibition of the transport activity of human SGLT2 in vitro (α-MDG uptake in CHO-TRex-hSGLT2 cells); conditions: 50 μM α-MDG, 120 min at 37° C.
Sequence (P31639 whole entry): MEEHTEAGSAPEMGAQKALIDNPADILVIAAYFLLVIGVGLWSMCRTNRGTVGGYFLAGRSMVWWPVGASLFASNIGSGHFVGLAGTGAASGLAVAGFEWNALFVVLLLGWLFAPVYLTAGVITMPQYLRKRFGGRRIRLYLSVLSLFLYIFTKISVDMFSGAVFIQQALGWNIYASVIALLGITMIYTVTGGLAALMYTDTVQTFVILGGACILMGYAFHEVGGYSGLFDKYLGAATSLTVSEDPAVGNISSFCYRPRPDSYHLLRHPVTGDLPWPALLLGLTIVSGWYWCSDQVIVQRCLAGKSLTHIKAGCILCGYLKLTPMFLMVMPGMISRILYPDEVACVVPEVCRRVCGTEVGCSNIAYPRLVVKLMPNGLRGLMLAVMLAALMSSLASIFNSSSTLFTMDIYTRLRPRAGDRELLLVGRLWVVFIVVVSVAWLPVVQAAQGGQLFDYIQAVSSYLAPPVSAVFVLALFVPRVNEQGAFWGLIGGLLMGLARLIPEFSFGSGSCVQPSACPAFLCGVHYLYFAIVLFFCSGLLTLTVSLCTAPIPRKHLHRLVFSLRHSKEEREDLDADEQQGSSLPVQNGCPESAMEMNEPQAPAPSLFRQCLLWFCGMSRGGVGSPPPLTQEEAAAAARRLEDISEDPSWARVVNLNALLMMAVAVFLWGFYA

| molecule | IC50 |
| --- | --- |
| CCOc1ccc(Cc2cc(C3OC(CO)C(F)C(O)C3O)ccc2Cl)cc1 (stereo not shown) | 10 nM |

Query COc1ccc(Cc2cc([C@@H]3O[C@H](CO)[C@@H](F)[C@H](O)[C@H]3O)ccc2OC(F)(F)F)cc1 yields IC50 of 412 nM

Query OCC1OC(c2ccc(Cl)c(Cc3ccc(OC(F)(F)F)cc3)c2)C(O)C(O)C1(F)F (stereo not shown) yields IC50 of 199 nM

Query CCOC(=O)OCC1OC(c2ccc(F)c(Cc3ccc(OC)cc3)c2)C(O)C(O)C1(F)F (stereo not shown) yields IC50 of 1400 nM

###

Target: human sodium-dependent glucose transporter 1 (SGLT1, SLC5A1) (Homo sapiens, UniProt P13866)
Construct: Bases 11 to 2005 correspond to the complete coding region of human SGLT1
Sequence (P13866 1-664): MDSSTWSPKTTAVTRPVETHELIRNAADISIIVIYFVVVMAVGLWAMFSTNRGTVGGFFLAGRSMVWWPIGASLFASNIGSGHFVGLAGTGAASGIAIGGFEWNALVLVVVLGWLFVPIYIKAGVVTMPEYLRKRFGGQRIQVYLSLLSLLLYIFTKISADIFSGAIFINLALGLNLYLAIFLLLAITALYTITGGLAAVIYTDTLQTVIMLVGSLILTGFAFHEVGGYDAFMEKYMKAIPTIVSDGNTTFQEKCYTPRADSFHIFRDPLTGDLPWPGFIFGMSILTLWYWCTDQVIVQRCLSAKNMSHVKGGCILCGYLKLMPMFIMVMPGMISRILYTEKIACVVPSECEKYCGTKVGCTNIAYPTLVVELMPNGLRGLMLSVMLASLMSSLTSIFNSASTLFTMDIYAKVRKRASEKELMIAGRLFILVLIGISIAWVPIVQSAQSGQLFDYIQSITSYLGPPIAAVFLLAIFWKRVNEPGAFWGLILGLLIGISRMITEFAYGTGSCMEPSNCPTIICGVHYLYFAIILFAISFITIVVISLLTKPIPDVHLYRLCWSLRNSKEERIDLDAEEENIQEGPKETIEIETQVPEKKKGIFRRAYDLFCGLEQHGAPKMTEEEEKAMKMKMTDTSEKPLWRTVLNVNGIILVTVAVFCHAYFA
Test: Inhibition of the transport activity of human SGLT1 in vitro (α-MDG uptake in CHO-TRex-hSGLT1 cells)
Conditions: 50 μM α-MDG, 30 min at room temperature
Known IC50 of a selection of molecules
Please respond with the number in µM and leave the unit unwritten.

Worked cases, answers included:
| molecule | property.name | recorded.result |
| --- | --- | --- |
| CCOC(=O)OCC1OC(c2ccc(Cl)c(Cc3ccc(OC)cn3)c2)C(O)C(O)C1(F)F (centres unmarked) | IC50 | 23.4 |
| COc1ccc(Cc2cc([C@@H]3O[C@H](CO)[C@@H](F)[C@H](O)[C@H]3O)ccc2C(F)(F)F)cc1 | IC50 | 0.24 |
| OCC1OC(c2ccc(Cl)c(Cc3ccc(OC(F)(F)F)cc3)c2)C(O)C(O)C1(F)F (centres unmarked) | IC50 | 16 |
| COc1ccc(Cc2cc(C3OC(CO)C(F)(F)C(O)C3O)ccc2C)cc1 (centres unmarked) | IC50 | 1.5 |
| COc1ccc(Cc2cc([C@@H]3O[C@H](CO)C(F)(F)[C@H](O)[C@H]3O)ccc2C(F)(F)F)cc1 | IC50 | 7.3 |
| CCOC(=O)OCC1OC(c2ccc(F)c(Cc3ccc(OC)cc3)c2)C(O)C(O)C1F (centres unmarked) | IC50 | 6.6 |

Query COc1ccc(Cc2cc(C3OC(CO)C(F)(F)C(O)C3O)ccc2F)cc1 (centres unmarked) yields IC50 of 16
